These measurements were taken from patent US20110300156A1.

tested target: T1, human tissue factor (TF), membrane-bound on cells (human, UniProt P13726 33-295)
T1 construct: whole, on cells; also called cellular TF
measurement notes: FACS on MDA-MB-231 cells (~900.000 TF molecules/cell) [panel MDA-MB-231 cells]
property: EC50 (read off the curve)

anti-TF HuMab 013 (antibody, V domains shown, Human monoclonal antibody from HuMab mice; also called HuMab-TF-13) VH: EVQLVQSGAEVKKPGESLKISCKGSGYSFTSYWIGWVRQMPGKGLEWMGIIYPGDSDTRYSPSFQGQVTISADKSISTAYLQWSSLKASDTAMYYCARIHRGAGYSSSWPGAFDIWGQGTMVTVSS VL: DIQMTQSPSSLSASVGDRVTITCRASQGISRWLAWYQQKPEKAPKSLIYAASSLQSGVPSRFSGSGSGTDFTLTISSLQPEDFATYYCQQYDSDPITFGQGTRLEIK: ~0.1 µg/mL
anti-TF HuMab 011 (antibody, V domains shown, Human monoclonal antibody from HuMab mice; also called HuMab-TF-11) VH: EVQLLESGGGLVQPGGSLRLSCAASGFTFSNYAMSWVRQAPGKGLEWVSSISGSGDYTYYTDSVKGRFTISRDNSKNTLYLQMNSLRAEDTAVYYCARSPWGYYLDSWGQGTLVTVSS VL: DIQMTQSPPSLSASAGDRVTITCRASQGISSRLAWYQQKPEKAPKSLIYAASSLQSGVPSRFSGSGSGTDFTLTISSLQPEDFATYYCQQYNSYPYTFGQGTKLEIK: ~0.03 µg/mL
anti-TF HuMab 098 (antibody, V domains shown, Human monoclonal antibody from HuMab mice; also called HuMab-TF-098; HuMab-TF-98) VH: QVQLVQSGAEVRKPGSSVKVSCKASGGSFNNYPIFWVRQAPGQGFEWMGRIIPILGITAYAQKFQGRVTITADKSTSTAYMELNSLRSEDTAVYYCAGGDDLDAFDIWGQGTMVSVSS VL: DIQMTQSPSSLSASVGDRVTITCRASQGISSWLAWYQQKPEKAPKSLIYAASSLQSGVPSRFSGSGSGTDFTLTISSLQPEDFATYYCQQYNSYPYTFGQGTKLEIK: ~0.05 µg/mL

// next entry
Recorded EC50 (read off the curve) of anti-TF HuMab 111 (antibody, V domains shown, Human monoclonal antibody from HuMab mice) VH: QVQLVESGGGVVQPGRSLRLSCAGSGFTFNRYAMYWVRQAPGKGLDWVAVISNDGINKYYADSVKGRFTISRDNSKNTLYLQMNSLRAEDTAVYYCARDHTMVRGAFDYWGQGTLVTVSS VL: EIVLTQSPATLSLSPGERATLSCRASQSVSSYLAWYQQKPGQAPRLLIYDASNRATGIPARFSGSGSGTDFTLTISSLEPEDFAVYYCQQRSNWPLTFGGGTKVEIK , please. ~0.06 µg/mL
